Cited source for all entries: ChEMBL document CHEMBL1201862

# Tested on: SNB-78
# test.description: NCI tumour cell line growth inhibition, 48 h
Activity calls are given as the source filed them. Rule as the data show it: active = GI50 up to about 1.1 µM and inactive = higher.
One label from this list, please: active, inactive

{"columns": ["molecule", "assigned.category"],
 "data": [
  ["O=C(CC(=O)C1=CNc2ccccc2S1)C(=O)Nc1ccc(Cl)cc1", "inactive"]
]}

Which result was noted for this molecule in the test: `N#C/C(=C\c1ccc(O)cc1)C(N)=O`
inactive

Which result was noted for this molecule in the test: `CN(C)c1ccc(/C=C/C(=O)C(C)(C)C)cc1Br`
inactive

Which result was noted for this molecule in the test: `C=CCCC(=O)CC(=O)OCc1ccccc1`
inactive

Which result was noted for this molecule in the test: `N#CC1(C#N)C(C#N)(C#N)C12CCCCCC2`
inactive

Which result was noted for this molecule in the test: CCC1(O)C[C@H]2CN(CCCc3c([nH]c4ccccc34)[C@@](C(=O)OC)(c3cc4c(cc3OC)N(C)C3[C@](O)(C(=O)OC)[C@H](OC(C)=O)[C@]5(CC)C=CCN6CC[C@]43[C@H]65)C2)C1 (some centres undefined)
active
